// provenance: ChEMBL document CHEMBL1201862

system: EKVX; test: NCI tumour cell line growth inhibition, 48 h
Active and inactive are the calls of the source. No stated cut-off is given here; in the data, active = GI50 up to about 1.1 µM and inactive = higher.
Give one outcome, nothing more. List: t for active, f for inactive

> print(dat)
                                   molecule  labelclass
1  CCOC(=O)C(C(=O)OCC)=C1NC2(c3ccccc3Nc3ccccc32)C(C#N)S1 (stereo not given)           f
2  CN(C)CCOc1ccc2[nH]c(C(=O)N3CC(CCl)c4ccc(N)cc43)cc2c1 (stereo not given)           t
3  C=C1CC(COc2cc(=O)oc3ccccc23)(c2ccccc2)OC1=O (stereo not given)           f
4  COc1cc(C2S/C(=C/c3ccccc3)C(=O)N2c2cc(Cl)ccc2Cl)cc(OC)c1OC (stereo not given)           f
5  CN(Cc1cnc2c(n1)C(N)=NN(N)N2)c1ccc(C(=O)NC(CCP(=O)(O)O)C(=O)O)cc1 (stereo not given)           f

Q: So what was the verdict on `O=C(/C=C/c1ccccc1)/C=N/N1C(=S)N(c2ccccc2)C(=N\c2ccccc2)/C1=N/c1ccccc1` in this test?
A: f

Q: So what was the verdict on OC(COC(c1ccccc1)(c1ccccc1)c1ccccc1)C(O)CC1SCCS1 (stereo not given) in this test?
A: f

Q: So what was the verdict on CC(=O)C1=CCC2c3[nH]c4ccccc4c3CCN2C1 (stereo not given) in this test?
A: f

Q: So what was the verdict on O=C1CC(CC(O)C(O)CO)CC(=O)N1 (stereo not given) in this test?
A: f

Q: So what was the verdict on `N#Cc1c(N)oc2cc3c(C#N)c(N)oc3cc12` in this test?
A: f
